Exercise: state measured MFI/isotype control normalized to full-length human CD137 for each of the binders provided.
- TEST SYSTEM: T1, human/mouse CD137 chimera 1552
- T1 construct: on transfected FreeStyle 293-F cells
- PROTOCOL NOTES: flow cytometry, 293-F cells with CD137 chimera
Give only the figure.

So what does the record say about MFI/isotype control normalized to full-length human CD137 for 1200/1201 (antibody, V domains shown) VH: EVQLLESGGGLVQPGGSLRLSCAASGFTFSSYAMSWVRQAPGKGLEWVSGISGGGGGTYYADSVKGRFTISRDNSKNTLYLQMNSLRAEDTAVYYCARDVAYFDYWGQGTLVTVSS VL: DIQMTQSPSSLSASVGDRVTITCRASQSISSYLNWYQQKPGKAPKLLIYAASSLQSGVPSRFSGSGSGTDFTLTISSLQPEDFATYYCQQYYIPHTFGQGTKLEIK ?
0.05

So what does the record say about MFI/isotype control normalized to full-length human CD137 for 1618/1619 (antibody, V domains shown) VH: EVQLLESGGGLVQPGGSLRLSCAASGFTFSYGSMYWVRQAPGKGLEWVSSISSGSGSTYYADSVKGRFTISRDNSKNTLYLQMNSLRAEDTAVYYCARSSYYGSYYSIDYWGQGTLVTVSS VL: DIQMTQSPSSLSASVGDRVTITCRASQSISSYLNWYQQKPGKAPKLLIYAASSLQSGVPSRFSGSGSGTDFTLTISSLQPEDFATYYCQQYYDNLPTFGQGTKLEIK ?
1.2

So what does the record say about MFI/isotype control normalized to full-length human CD137 for 1202/1203 (antibody, V domains shown) VH: EVQLLESGGGLVQPGGSLRLSCAASGFTFYGSSMSWVRQAPGKGLEWVSSIYYGSSGTYYADSVKGRFTISRDNSKNTLYLQMNSLRAEDTAVYYCARSYYGYFDYWGQGTLVTVSS VL: DIQMTQSPSSLSASVGDRVTITCRASQSISSYLNWYQQKPGKAPKLLIYAASSLQSGVPSRFSGSGSGTDFTLTISSLQPEDFATYYCQQYYTVVPFTFGQGTKLEIK ?
0.06

So what does the record say about MFI/isotype control normalized to full-length human CD137 for 1626/1627 (antibody, V domains shown) VH: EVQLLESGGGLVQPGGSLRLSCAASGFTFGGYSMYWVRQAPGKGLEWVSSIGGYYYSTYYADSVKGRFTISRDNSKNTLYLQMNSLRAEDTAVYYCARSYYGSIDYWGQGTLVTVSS VL: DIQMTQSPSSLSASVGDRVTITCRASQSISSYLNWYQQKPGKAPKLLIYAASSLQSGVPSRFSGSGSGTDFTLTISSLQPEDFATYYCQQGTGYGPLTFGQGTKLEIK ?
0.11

So what does the record say about MFI/isotype control normalized to full-length human CD137 for 1620/1621 (antibody, V domains shown) VH: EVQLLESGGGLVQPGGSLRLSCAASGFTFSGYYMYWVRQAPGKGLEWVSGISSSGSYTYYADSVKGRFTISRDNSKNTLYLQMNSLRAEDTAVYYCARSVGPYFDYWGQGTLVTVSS VL: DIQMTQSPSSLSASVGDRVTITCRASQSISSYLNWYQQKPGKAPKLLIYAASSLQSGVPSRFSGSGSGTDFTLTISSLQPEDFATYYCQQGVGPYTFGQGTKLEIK ?
0.18

So what does the record say about MFI/isotype control normalized to full-length human CD137 for 1204/1205 (antibody, V domains shown) VH: EVQLLESGGGLVQPGGSLRLSCAASGFTFSSYYMGWVRQAPGKGLEWVSGIGSYYGYTGYADSVKGRFTISRDNSKNTLYLQMNSLRAEDTAVYYCARAYYDYNYYYAYFDYWGQGTLVTVSS VL: DIQMTQSPSSLSASVGDRVTITCRASQSISSYLNWYQQKPGKAPKLLIYAASSLQSGVPSRFSGSGSGTDFTLTISSLQPEDFATYYCQQSVPHYPFTFGQGTKLEIK ?
0.13
